Target: T1, His-human LIGHT (human)
T1 chain: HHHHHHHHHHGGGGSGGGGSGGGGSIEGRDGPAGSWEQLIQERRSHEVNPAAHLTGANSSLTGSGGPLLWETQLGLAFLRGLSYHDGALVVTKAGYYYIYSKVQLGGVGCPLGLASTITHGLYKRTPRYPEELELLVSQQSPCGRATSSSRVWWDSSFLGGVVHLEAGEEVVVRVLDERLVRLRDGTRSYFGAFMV
Experiment: cell-based or functional assay
Each record here notes measured IC50, HVEM NF-κB luciferase reporter, free LIGHT.
Observable: IC50, HVEM NF-κB luciferase reporter, free LIGHT

* hum_LT-m85-1 (antibody, human IgG4, V domains shown, humanized from LT-m85) VH: QVQLVQSGAEVKKPGASVKVSCKASGYTFTSYNVHWVRQAPGQGLEWIGAVYPGNGDTSYNQKFKGRATLTADKSTSTVYMELSSLRSEDTAVYYCARGSYYYTSSYFDHWGQGTLVTVSS VL: EIVLTQSPATLSVSPGERATLSCKASQSVDFDGDSYMNWYQQKPGQPPRLLIYTASNLESGIPARFSGSGSGTEFTLTISSLQSEDFAVYYCQQSYEDPFTFGQGTKLEIK | 0.33 nM
* hum_LT-m85-3 (antibody, human IgG4, V domains shown, humanized from LT-m85) VH: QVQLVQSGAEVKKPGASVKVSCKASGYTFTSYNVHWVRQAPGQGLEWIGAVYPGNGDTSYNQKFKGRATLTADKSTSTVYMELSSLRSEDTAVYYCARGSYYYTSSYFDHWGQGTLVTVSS VL: EIVMTQSPATLSVSPGERATLSCKASQSVDFDGDSYMNWYQQKPGQPPRLLIYTASNLESGIPARFSGSGSGTEFTLTISSLQSEDFAVYYCQQSYEDPFTFGQGTKLEIK | 0.564 nM
* hum_LT-m85-4 (antibody, human IgG4, V domains shown, humanized from LT-m85) VH: QVQLVQSGAEVKKPGASVKVSCKASGYTFTSYNVHWVRQAPGQGLEWIGAVYPGNGDTSYNQKFKGRATLTADKSTSTAYMELSSLRSEDTAVYYCARGSYYYTSSYFDHWGQGTLVTVSS VL: EIVMTQSPATLSVSPGERATLSCKASQSVDFDGDSYMNWYQQKPGQAPRLLIYTASNLESGIPARFSGSGSGTEFTLTISSLQSEDFAVYYCQQSYEDPFTFGQGTKLEIK | 0.454 nM
* hum_LT-m85-2 (antibody, human IgG4, V domains shown, humanized from LT-m85) VH: QVQLVQSGAEVKKPGASVKVSCKASGYTFTSYNVHWVRQAPGQGLEWMGAVYPGNGDTSYNQKFKGRATLTADKSTSTAYMELSSLRSEDTAVYYCARGSYYYTSSYFDHWGQGTLVTVSS VL: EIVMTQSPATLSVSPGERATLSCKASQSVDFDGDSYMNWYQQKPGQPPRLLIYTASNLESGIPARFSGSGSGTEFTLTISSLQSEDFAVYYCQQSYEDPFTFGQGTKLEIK | 0.209 nM
